test system: 889142-216-R-J1-PDC complex spheroid viability; assay: Anticancer human tumor 889142-216-R-J1-PDC patient-derived bladder carcinoma cell line growth inhibition [POLQ]; conditions: second compound 0.1 µM; first compound 10 µM; stronger effect = lower value
Returns: string. Value is met if measured viability, T/C is below 60%, and not met if it is greater than or equal to it.

compound | assayed_system | answer_label
CNCc1ccc(-c2[nH]c3cc(F)cc4c3c2CCNC4=O)cc1 + Nc1ccc(C#CCN(C(=O)Cc2ncc(C(F)(F)F)cc2C(F)(F)F)c2ccc(F)cc2)nn1 | 889142-216-R-J1-PDC complex spheroid viability | not met
CCc1cc2c(N3CCc4c(cc(Cn5ccnc5)cc4-c4cn(C)nc4C(F)(F)F)C3=O)ccnc2c(OC)n1 + Nc1ccc(C#CCN(C(=O)Cc2ncc(C(F)(F)F)cc2C(F)(F)F)c2ccc(F)cc2)nn1 | 889142-216-R-J1-PDC complex spheroid viability | not met
O=C(Nc1ccc(O)c(NS(=O)(=O)c2ccc(F)cc2)c1)c1ccc(-c2ccccc2)cc1 + COC1C(OC(N)=O)C(O)C(Oc2ccc3c(O)c(NC(=O)c4ccc(O)c(CC=C(C)C)c4)c(=O)oc3c2C)OC1(C)C | 889142-216-R-J1-PDC complex spheroid viability | not met
CC(C)n1c(=O)n(C)c2cnc3cc(F)c(-c4ccc(OCCCN5CCCCC5)nc4)cc3c21 + COC1C(OC(N)=O)C(O)C(Oc2ccc3c(O)c(NC(=O)c4ccc(O)c(CC=C(C)C)c4)c(=O)oc3c2C)OC1(C)C | 889142-216-R-J1-PDC complex spheroid viability | met
COc1cc(C2c3cc4c(cc3C(OC3OC5COC(C)OC5C(O)C3O)C3COC(=O)C23)OCO4)cc(OC)c1O (stereo not given) + Cc1cccc(N(C)C(=O)C2C(O)CCN2c2nc(C)cc(C(F)(F)F)c2C#N)c1 | 889142-216-R-J1-PDC complex spheroid viability | met

====

Reported IC50 by item:
test system: 889142-216-R-J1-PDC complex spheroid viability; assay: Anticancer human tumor 889142-216-R-J1-PDC cell line growth inhibition [POLQ]; settings: curve of first compound; second compound 0.316 µM;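 also: spheroids exposed to compounds for seven days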

compound | IC50
Cn1ncnc1[C@H]1c2n[nH]c(=O)c3cc(F)cc(c23)N[C@@H]1c1ccc(F)cc1 + Cc1cccc(N(C)C(=O)C2C(O)CCN2c2nc(C)cc(C(F)(F)F)c2C#N)c1 | > 0.1 µM
O=C(Nc1ccc(O)c(NS(=O)(=O)c2ccc(F)cc2)c1)c1ccc(-c2ccccc2)cc1 + Nc1ccc(C#CCN(C(=O)Cc2ncc(C(F)(F)F)cc2C(F)(F)F)c2ccc(F)cc2)nn1 | > 10 µM
O=c1[nH]cc(F)c(=O)[nH]1 + Nc1ccc(C#CCN(C(=O)Cc2ncc(C(F)(F)F)cc2C(F)(F)F)c2ccc(F)cc2)nn1 | > 10 µM
CCc1cc2c(N3CCc4c(cc(Cn5ccnc5)cc4-c4cn(C)nc4C(F)(F)F)C3=O)ccnc2c(OC)n1 + Nc1ccc(C#CCN(C(=O)Cc2ncc(C(F)(F)F)cc2C(F)(F)F)c2ccc(F)cc2)nn1 | > 10 µM
O=C(c1cc(Cc2n[nH]c(=O)c3ccccc23)ccc1F)N1CCN(C(=O)C2CC2)CC1 + COC1C(OC(N)=O)C(O)C(Oc2ccc3c(O)c(NC(=O)c4ccc(O)c(CC=C(C)C)c4)c(=O)oc3c2C)OC1(C)C | > 10 µM
CC[C@@]1(O)C(=O)OCc2c1cc1n(c2=O)Cc2cc3c(CN(C)C)c(O)ccc3nc2-1 + Cc1cccc(N(C)C(=O)C2C(O)CCN2c2nc(C)cc(C(F)(F)F)c2C#N)c1 | > 0.1 µM
CC1COCCN1c1cc(-c2ccnn2C)c2ccnc(-c3ccn[nH]3)c2n1 (stereo not given) + Cc1cccc(N(C)C(=O)C2C(O)CCN2c2nc(C)cc(C(F)(F)F)c2C#N)c1 | 0.162 µM
C#Cc1c(F)ccc2cc(O)cc(-c3ncc4c(N5CC6CCC(C5)N6)nc(OCC56CCCN5CC(F)C6)nc4c3F)c12 (stereo not given) + COC1C(OC(N)=O)C(O)C(Oc2ccc3c(O)c(NC(=O)c4ccc(O)c(CC=C(C)C)c4)c(=O)oc3c2C)OC1(C)C | 5.82 µM
CC(=O)O[C@H]1C(=O)[C@@]2(C)[C@H]([C@H](OC(=O)c3ccccc3)[C@]3(O)C[C@H](OC(=O)[C@H](O)[C@@H](NC(=O)c4ccccc4)c4ccccc4)C(C)=C1C3(C)C)[C@]1(OC(C)=O)CO[C@@H]1C[C@@H]2O + COC1C(OC(N)=O)C(O)C(Oc2ccc3c(O)c(NC(=O)c4ccc(O)c(CC=C(C)C)c4)c(=O)oc3c2C)OC1(C)C | < 0.00949 µM
C=CCn1c(=O)c2cnc(Nc3ccc(N4CCN(C)CC4)cc3)nc2n1-c1cccc(C(C)(C)O)n1 + Nc1ccc(C#CCN(C(=O)Cc2ncc(C(F)(F)F)cc2C(F)(F)F)c2ccc(F)cc2)nn1 | > 1 µM

====

system: 889142-216-R-J1-PDC complex spheroid viability; assay: Anticancer human tumor 889142-216-R-J1-PDC cell line growth inhibition [POLQ]; conditions: second compound 0.0316 µM; first compound 0.316 µM; stronger effect = lower value;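 also: spheroids exposed to compounds for seven days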;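 as to viability, T/C: 100% = DMSO vehicle control viability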
Returns: string. Value is criterion met if measured viability, T/C is below 70%, and criterion not met if it is greater than or equal to it.

compound | assayed_system | answer_label
C=CCn1c(=O)c2cnc(Nc3ccc(N4CCN(C)CC4)cc3)nc2n1-c1cccc(C(C)(C)O)n1 + Nc1ccc(C#CCN(C(=O)Cc2ncc(C(F)(F)F)cc2C(F)(F)F)c2ccc(F)cc2)nn1 | 889142-216-R-J1-PDC complex spheroid viability | criterion not met
C=CC(=O)N1CCN(c2nc(=O)n(-c3c(C)ccnc3C(C)C)c3nc(-c4c(O)cccc4F)c(F)cc23)C(C)C1 (stereo not given) + Cc1cccc(N(C)C(=O)C2C(O)CCN2c2nc(C)cc(C(F)(F)F)c2C#N)c1 | 889142-216-R-J1-PDC complex spheroid viability | criterion not met
CCc1c2c(nc3ccc(O)cc13)-c1cc3c(c(=O)n1C2)COC(=O)[C@]3(O)CC + Nc1ccc(C#CCN(C(=O)Cc2ncc(C(F)(F)F)cc2C(F)(F)F)c2ccc(F)cc2)nn1 | 889142-216-R-J1-PDC complex spheroid viability | criterion met
CNCc1ccc(-c2[nH]c3cc(F)cc4c3c2CCNC4=O)cc1 + Cc1cccc(N(C)C(=O)C2C(O)CCN2c2nc(C)cc(C(F)(F)F)c2C#N)c1 | 889142-216-R-J1-PDC complex spheroid viability | criterion not met
COc1cccc2c1C(=O)c1c(O)c3c(c(O)c1C2=O)CC(O)(C(=O)CO)CC3OC1CC(N)C(O)C(C)O1 (stereo not given) + Cc1cccc(N(C)C(=O)C2C(O)CCN2c2nc(C)cc(C(F)(F)F)c2C#N)c1 | 889142-216-R-J1-PDC complex spheroid viability | criterion met
CC(C)n1c(=O)n(C)c2cnc3cc(F)c(-c4ccc(OCCCN5CCCCC5)nc4)cc3c21 + Cc1cccc(N(C)C(=O)C2C(O)CCN2c2nc(C)cc(C(F)(F)F)c2C#N)c1 | 889142-216-R-J1-PDC complex spheroid viability | criterion not met
CC(C)n1c(=O)n(C)c2cnc3cc(F)c(-c4ccc(OCCCN5CCCCC5)nc4)cc3c21 + Nc1ccc(C#CCN(C(=O)Cc2ncc(C(F)(F)F)cc2C(F)(F)F)c2ccc(F)cc2)nn1 | 889142-216-R-J1-PDC complex spheroid viability | criterion not met
COc1cccc2c1C(=O)c1c(O)c3c(c(O)c1C2=O)CC(O)(C(=O)CO)CC3OC1CC(N)C(O)C(C)O1 (stereo not given) + COC1C(OC(N)=O)C(O)C(Oc2ccc3c(O)c(NC(=O)c4ccc(O)c(CC=C(C)C)c4)c(=O)oc3c2C)OC1(C)C | 889142-216-R-J1-PDC complex spheroid viability | criterion met
C=CCn1c(=O)c2cnc(Nc3ccc(N4CCN(C)CC4)cc3)nc2n1-c1cccc(C(C)(C)O)n1 + COC1C(OC(N)=O)C(O)C(Oc2ccc3c(O)c(NC(=O)c4ccc(O)c(CC=C(C)C)c4)c(=O)oc3c2C)OC1(C)C | 889142-216-R-J1-PDC complex spheroid viability | criterion met

====

test system: 889142-216-R-J1-PDC complex spheroid viability; assay: Anticancer human tumor 889142-216-R-J1-PDC cell line growth inhibition [POLQ]; settings: second compound 0.0316 µM; first compound 0.0316 µM; stronger effect = lower value;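 also: spheroids exposed to compounds for seven days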;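 as to viability, T/C: 100% = DMSO vehicle control viability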
Reported viability, T/C by item:
readout_name: viability, T/C (%)

compound | data_value
Cn1ncnc1[C@H]1c2n[nH]c(=O)c3cc(F)cc(c23)N[C@@H]1c1ccc(F)cc1 + Nc1ccc(C#CCN(C(=O)Cc2ncc(C(F)(F)F)cc2C(F)(F)F)c2ccc(F)cc2)nn1 | 90.3
O=C(c1cc(Cc2n[nH]c(=O)c3ccccc23)ccc1F)N1CCN(C(=O)C2CC2)CC1 + Nc1ccc(C#CCN(C(=O)Cc2ncc(C(F)(F)F)cc2C(F)(F)F)c2ccc(F)cc2)nn1 | 94
COc1cccc2c1C(=O)c1c(O)c3c(c(O)c1C2=O)CC(O)(C(=O)CO)CC3OC1CC(N)C(O)C(C)O1 (stereo not given) + Nc1ccc(C#CCN(C(=O)Cc2ncc(C(F)(F)F)cc2C(F)(F)F)c2ccc(F)cc2)nn1 | 55.1
C#Cc1c(F)ccc2cc(O)cc(-c3ncc4c(N5CC6CCC(C5)N6)nc(OCC56CCCN5CC(F)C6)nc4c3F)c12 (stereo not given) + Cc1cccc(N(C)C(=O)C2C(O)CCN2c2nc(C)cc(C(F)(F)F)c2C#N)c1 | 106
CC1COCCN1c1cc(-c2ccnn2C)c2ccnc(-c3ccn[nH]3)c2n1 (stereo not given) + Cc1cccc(N(C)C(=O)C2C(O)CCN2c2nc(C)cc(C(F)(F)F)c2C#N)c1 | 84.3
